Items are presented alongside their recorded inhibition.
- Measurement target: Cathepsin G (Homo sapiens) (UniProt P08311)
- Sequence (P08311 21-244 limits assumed): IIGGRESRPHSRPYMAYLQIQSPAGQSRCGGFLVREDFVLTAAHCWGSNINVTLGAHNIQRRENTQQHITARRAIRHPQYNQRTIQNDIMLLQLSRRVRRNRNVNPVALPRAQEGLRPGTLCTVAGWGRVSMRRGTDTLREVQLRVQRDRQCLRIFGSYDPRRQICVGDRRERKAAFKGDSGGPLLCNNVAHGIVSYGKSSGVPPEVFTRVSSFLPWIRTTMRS
- Assay comment: human cathepsin G inhibitors, primary screen, biochemical, pooled compound mixtures, AMC fluorescence (AID 581);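 note: 0% = enzyme control without mixture and 100% = blank lacking enzyme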
- Test context: purified enzyme, AMC-tetrapeptide fluorescence, stronger effect = higher value, screened at 5 µM (by protocol)
Among all 62,000 compounds or so, about 95 (0.2%) were called active. The sample holds actives, similar compounds and a random draw of the others, so the mix is not that of the screen.

# Compound, Measurement units, inhibition
records = [
    ("Oc1c(C(c2ccccn2)N2CCOCC2)ccc2cccnc12 (stereo unspecified)", "%", 13.3),
    ("CN(C(=O)c1ccccn1)c1nnc(-c2ccccn2)s1", "%", 10.6),
    ("O=C(c1ccco1)N1CCN(C(=O)C2CC(c3ccc(F)cc3)=NO2)CC1 (stereo unspecified)", "%", 2.3),
    ("COc1ccc2nc(NC(=O)c3ccc(Br)s3)sc2c1", "%", 10.8),
    ("O=C(CC1CCCCC1)Nc1c2c(nn1-c1ccc(F)cc1)CS(=O)(=O)C2", "%", -0.2),
    ("Cc1cc(C(F)(F)F)nn1-c1nc(-c2ccco2)cc(C(F)(F)F)n1", "%", -9.21),
]
